Quick reference for IC50 (read off the curve) among some binders
- target-or-test-system: T1, rhPD1-Fc (fusion protein of the extracellular part of human PD-1 and mouse Fc gamma 1, R&D Systems Cat … (human; mouse, UniProt Q15116 25-170; P01868 98-324 = IgG part, limits assumed)
- T1 construct: extracellular domain;domain: Fc; bought; also called PD-1 ectodomain
- T1 sequence (Q15116 other isoform, or with tags, fused parts or gaps limits assumed): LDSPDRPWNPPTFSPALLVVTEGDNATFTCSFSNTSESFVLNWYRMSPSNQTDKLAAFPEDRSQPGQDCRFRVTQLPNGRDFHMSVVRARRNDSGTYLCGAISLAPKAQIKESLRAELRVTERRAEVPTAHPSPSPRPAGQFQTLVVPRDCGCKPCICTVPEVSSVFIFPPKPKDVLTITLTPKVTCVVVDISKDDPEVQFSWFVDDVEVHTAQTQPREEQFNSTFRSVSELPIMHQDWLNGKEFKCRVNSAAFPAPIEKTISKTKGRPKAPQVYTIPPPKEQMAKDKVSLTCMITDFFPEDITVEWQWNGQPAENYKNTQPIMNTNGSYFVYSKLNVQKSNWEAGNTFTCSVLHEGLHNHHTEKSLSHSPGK
- assay-name: competition ELISA, coated PD-1; blocked ligand PD-L2-biotin

binder | IC50 (read off the curve)
102E8 (VHH, Nanobody against PD-1) VHH: EVQLVESGGGLVQAGGSLGLSCAASGSIFSINAMAWFRQAPGKEREFVALISWSGGSTYYEDSVKGRFTISRDNAKNTVYLQMNSLKPEDTAIYYCAADRVDSNWYDYWGQGTQVTVSS | ~200 nM
102C3 (VHH, Nanobody against PD-1) VHH: EVQLVESGGGLVQAGKSLRLSCAASGSIFSIHAMGWFRQAPGKEREFVAAITWSGGITYYEDSVKGRFTISRDNAKNTVYLQMNSLKPEDTAIYYCAADRAESSWYDYWGQGTQVTVSS | ~10 nM
102E2 (VHH, Nanobody against PD-1) VHH: EVQLVESGGGLVQAGGSLRLSCAASGSISSIHAMGWFRQAPGKEREFVAAITWSGGITYYADSLKGRFTISRDNAKNTGYLQMNSLKPEDTAIYYCAADRAQSSWYDYWGQGTQVTVSS | ~70 nM
102C12 (VHH, Nanobody against PD-1) VHH: EVQLVESGGGLVQAGGSLRLSCAASGSIASIHAMGWFRQAPGKEREFVAVITWSGGITYYADSVKGRFTISRDNAKNTVYLQMNSLKPEDTAIYYCAGDKHQSSWYDYWGQGTQVTVSS | ~70 nM
